Attribute Measured: melting point

Cc1c(-c2cc(C(=O)O)c3cc(Cl)ccc3n2)nnn1-c1ccccc1 [Compound 5i] ... > 300 °C
Cc1c(-c2cc(C(=O)O)c3cc(Cl)ccc3n2)nnn1-c1cccc(Br)c1 [Compound 5L] ... 248 to 250 °C
Cc1c(-c2cc(C(=O)O)c3cc(Br)ccc3n2)nnn1-c1ccc(Br)cc1 [Compound 5w] ... > 300 °C
Cc1c(-c2cc(C(=O)O)c3cc(Br)ccc3n2)nnn1-c1ccc(F)cc1 [Compound 5u] ... > 300 °C
Cc1c(-c2cc(C(=O)O)c3cc(Br)ccc3n2)nnn1-c1ccc([N+](=O)[O-])cc1 [Compound 5x] ... 236 to 238 °C
Cc1c(-c2cc(C(=O)O)c3ccccc3n2)nnn1-c1cccc(Br)c1 [Compound 5d] ... 248 to 250 °C
Cc1c(-c2cc(C(=O)O)c3cc(Br)ccc3n2)nnn1-c1ccccc1 [Compound 5q] ... > 300 °C

In the following, a different compound is considered.
Ask: Entry Cc1c(-c2cc(C(=O)O)c3ccccc3n2)nnn1-c1ccc([N+](=O)[O-])cc1 [Compound 5h] : reported melting point = ?
Reply: 265 to 267 °C

* * *

Tested on: L929 cells
Protocol: Cytotoxicity, MTT protocol (ISO 10993-5:2009(E))
Type: cell-based
Experimental Parameters: ratio to MIC against M. tuberculosis
Attribute Measured: IC50-L929/MIC Mtb (cytotoxicity / discriminatory index)

Each of the following entries comes with a recorded value; kindly state IC50-L929/MIC Mtb (cytotoxicity / discriminatory index) for each.
1. Cc1c(-c2cc(C(=O)O)c3cc(Cl)ccc3n2)nnn1-c1ccccc1
2. Cc1c(-c2cc(C(=O)O)c3cc(Br)ccc3n2)nnn1-c1cccc(Br)c1
3. Cc1c(-c2cc(C(=O)O)c3cc(Cl)ccc3n2)nnn1-c1ccc(Cl)cc1

Reply:
[20, 13, 16]
